# experimental.target: Choline O-acetyltransferase (Rattus norvegicus)
# measurement.notes: Induction of ChAT activity in rat forebrain cells at 0.1 ug/mL relative to control
# Type: cell-based
measurement.name: Activity (%)
Write the value in % as a bare number.

C=C1CC[C@@H](OC)[C@@](O)(CO)C[C@H]2O[C@@]23[C@H](C(C)(C)O)CC[C@@]3(C)CC1 = 89.2
C=C1CC/C=C(/CO)C/C=C2\[C@H](C(C)(C)O)CC[C@@]2(C)CC1 = 109
C=C1CC[C@@H]2O[C@]2(COC(=O)CCCCCCCCCCCCC)C[C@H]2O[C@@]23[C@H](C(C)(C)O)CC[C@@]3(C)CC1 = 97.6
C=C1CC[C@@H](Cl)[C@@](O)(COC(=O)c2ccc(Br)cc2)C[C@H]2O[C@@]23[C@H](C(C)(C)O)CC[C@@]3(C)CC1 = 96.7

// Activity value for `C=C1CC[C@@H]2O[C@]2(COC(C)=O)C[C@H]2O[C@@]23[C@H](C(C)(C)O)CC[C@@]3(C)CC1` : 89.2

Reported Activity for `C=C1CC[C@@H]2O[C@]2(COC(=O)CCC)C[C@H]2O[C@@]23[C@H](C(C)(C)O)CC[C@@]3(C)CC1` was 118

Consider `C=C1CC[C@@H]2O[C@]2(CO)C[C@H]2O[C@@]23[C@H](C(C)(C)O)CC[C@@]3(C)CC1` . Its measured Activity is 127

Sample `COC1(OC)CC[C@@H]2O[C@]2(CO)C[C@H]2O[C@@]23[C@H](C(C)(C)O)CC[C@@]3(C)CC1` ; Activity observed: 109

Recorded Activity (compound `C=C1CC[C@@H]2O[C@]2(COC(=O)c2ccccc2)C[C@H]2O[C@@]23[C@H](C(C)(C)O)CC[C@@]3(C)CC1` ): 116

So, `C=C1CC[C@@H]2O[C@]2(COC(C)=O)C[C@H]2O[C@@]23[C@H](C(C)(C)O)CC[C@@]3(C)[C@H](OC(C)=O)C1` ? Its Activity was 11.5

# compound `C=C1CC[C@@H]2O[C@]2(COC(=O)CCCCC)C[C@H]2O[C@@]23[C@H](C(C)(C)O)CC[C@@]3(C)CC1` ; its Activity = 139

Value of measured Activity for the entry `C=C1CC[C@@H]2O[C@]2(COC(=O)CCCCCCCCCCC)C[C@H]2O[C@@]23[C@H](C(C)(C)O)CC[C@@]3(C)CC1` : 108

All values here come from ChEMBL document CHEMBL1154557.
